Listing of recorded CC50 by entry.
test: Cytotoxicity in the DENV assay, uninfected parallel cultures; details: human, DENV CC50, uninfected Huh-7.5 parallel cultures

[
  {
    "compound": "CC(C)OC(=O)[C@H](C)NP(=O)(OC[C@@]1(F)O[C@@](C#N)(c2ccc3c(N)ncnn23)[C@H](O)[C@@H]1O)Oc1ccccc1 (stereo partly shown)",
    "inequality operator": "=",
    "CC50 (µM)": 78
  },
  {
    "compound": "CC(C)CCOC(=O)C[C@H](NP(=O)(OC[C@@]1(F)O[C@@](C#N)(c2ccc3c(N)ncnn23)[C@H](O)[C@@H]1O)Oc1ccccc1)C(=O)OCCC(C)C (stereo partly shown)",
    "inequality operator": "=",
    "CC50 (µM)": 15
  },
  {
    "compound": "CC(C)OC(=O)[C@@H](C)NP(=O)(OC[C@@]1(F)O[C@@](C#N)(c2ccc3c(N)ncnn23)[C@H](O)[C@@H]1O)Oc1ccccc1 (stereo partly shown)",
    "inequality operator": ">",
    "CC50 (µM)": 100
  },
  {
    "compound": "CCC(CC)COC(=O)[C@@H](C)NP(=O)(OC[C@@]1(F)O[C@@](C#N)(c2ccc3c(N)ncnn23)[C@H](O)[C@@H]1O)Oc1ccccc1 (stereo partly shown)",
    "inequality operator": "=",
    "CC50 (µM)": 12
  }
]

====

test: Toxicity (CC50) in the HRV1B assay; conditions: human
measurement label: CC50 at 4 d (µM)

[
  {
    "compound": "CCC(CC)COC(=O)[C@@H](C)NP(=O)(OC[C@@]1(F)O[C@@](C#N)(c2ccc3c(N)ncnn23)[C@H](O)[C@@H]1O)Oc1ccccc1 (stereo partly drawn)",
    "inequality operator": "=",
    "reported measurement": 33
  },
  {
    "compound": "CC(C)OC(=O)[C@H](C)NP(=O)(OC[C@@]1(F)O[C@@](C#N)(c2ccc3c(N)ncnn23)[C@H](O)[C@@H]1O)Oc1ccccc1 (stereo partly drawn)",
    "inequality operator": ">",
    "reported measurement": 100
  },
  {
    "compound": "C[C@H](NP(=O)(OC[C@@]1(F)O[C@@](C#N)(c2ccc3c(N)ncnn23)[C@H](O)[C@@H]1O)Oc1ccccc1)C(=O)OCC(C)(C)C (stereo partly drawn)",
    "inequality operator": "=",
    "reported measurement": 64
  },
  {
    "compound": "CCCOC(=O)[C@H](C)NP(=O)(N[C@@H](C)C(=O)OCCC)OC[C@@]1(F)O[C@@](C#N)(c2ccc3c(N)ncnn23)[C@H](O)[C@@H]1O",
    "inequality operator": ">",
    "reported measurement": 100
  },
  {
    "compound": "CC(C)OC(=O)[C@@H](C)NP(=O)(OC[C@@]1(N=[N+]=[N-])O[C@@](C#N)(c2ccc3c(N)ncnn23)[C@H](O)[C@@H]1O)Oc1ccccc1 (stereo partly drawn)",
    "inequality operator": "=",
    "reported measurement": 59
  },
  {
    "compound": "CC(C)CCOC(=O)C[C@H](NP(=O)(OC[C@@]1(F)O[C@@](C#N)(c2ccc3c(N)ncnn23)[C@H](O)[C@@H]1O)Oc1ccccc1)C(=O)OCCC(C)C (stereo partly drawn)",
    "inequality operator": "=",
    "reported measurement": 12.4
  }
]
